Molecular target: T1, GRIP1_3, Q9Y3R0
T1 sequence (Q9Y3R0 247-346, limits assumed, looked up): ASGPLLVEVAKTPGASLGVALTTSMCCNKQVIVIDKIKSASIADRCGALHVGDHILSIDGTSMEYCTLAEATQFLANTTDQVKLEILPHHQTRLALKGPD
Experiment: holdup assay
Design: key: below the threshold = too weak to quantify, mostly under pKd 3.1 to 4
Details: plain residues with an end cap or a label only (N-terminal biotin on a linker: ado-ado)
measured property: pKd

• QKNKDREYYV [NRXN3, Q9HDB5] = below the threshold
• KEKASTETEC [TRPM1, Q7Z4N2] = below the threshold
• SAGADSETHC [SLCO1B1, Q9Y6L6] = below the threshold
• NSTHNLKDYV [CLDN20, P56880] = below the threshold
• HYPASPDSWV [CTNND2, Q9UQB3] = below the threshold
• ADEMICITTL [CACNA1D, Q01668] = below the threshold
• DAAHHDESNC [FMNL3, Q8IVF7] = below the threshold
• PSVYSRSQYV [CLDN8, P56748] = below the threshold
• GQNMTVSVVI [PRLHR, P49683] = below the threshold
• IGHEDLETAV [DGKI, O75912] = below the threshold
• HLSTRQGTCV [ATRNL1, Q5VV63] = below the threshold
• IKLETKKTKL [SLC15A2, Q16348] = below the threshold
• NNMAFETTHF [SLC5A12, Q1EHB4] = below the threshold
• QLGSPTADLA [SIPA1, Q96FS4] = below the threshold
• FLVTEFNVML [DFNB31, Q9P202] = below the threshold
• DFKHTKSFII [JAM2, P57087] = below the threshold
